Data provenance is PubChem BioAssay (NCI).

System: NCI-H460 lung
Experiment: NCI tumour cell line growth inhibition, 48 h
Measured endpoint: TGI

compound=O=c1nc(N2CCCC2)nc(N2CCCC2)s1 result="> 100 µM"
compound="N#CCC1C2CC3C(C2=O)C13 (stereo not given)" result="> 100 µM"
compound=COc1cc2c3c(n(CCCN4CCCNCC4)c(=O)c2cc1OC)-c1cc2c(cc1C3=O)OCO2 result="6.47 µM"

Exercise: Report TGI for CN(C)c1ccc(/C=c2\sc3nnc(-c4cccnc4)n3c2=O)cc1 please.
Solution: > 100 µM

Exercise: Which TGI value belongs to NC(Cc1ccccc1)c1nn[nH]n1 (stereo not given) ?
Solution: > 100 µM

====

Tested on: OVCAR-4 ovarian
Test: NCI tumour cell line growth inhibition, 48 h
Measured TGI accompanies every entry in the list below.
// units = µM; emit number, no label

Here's what some known entries look like.
molecule=COc1cc2c3c(n(CCCN4CCCNCC4)c(=O)c2cc1OC)-c1cc2c(cc1C3=O)OCO2 recorded_number=11.1
molecule=C/C(=N/NC(=S)N1CC2CCC(CC2)C1)c1cnccn1 recorded_number=5.59
molecule=O=c1[nH]c2ccccc2n2cc3ccccc3c12 recorded_number=89.7
molecule=O=C(Nc1ccc(I)cc1)c1cccc([N+](=O)[O-])c1O recorded_number=25

Exercise: Tell me the measured TGI of O=C(CCc1ccc(O)c(O)c1)NCCc1cc(O)c(O)c(O)c1 , please.
Solution: 34.5

Exercise: For CC(=O)OCC1OC(OC(C)=O)C(Nc2ncc(-c3ccc(C)cc3)s2)C(OC(C)=O)C1OC(C)=O (stereo unspecified) , what is its reported TGI?
Solution: 35.4

Exercise: May I ask what TGI has been recorded for Cc1ccc(SCC(CF)OC(C)n2cnc3c(Cl)nc(N)nc32)cc1 (stereo unspecified) ?
Solution: 52.6

====

Tested on: HOP-92 NSCLC
Assay: NCI tumour cell line growth inhibition, 48 h
Measured TGI values are reported for all entries that follow.

// below: answered molecules
molecule=CC(CNC(=O)c1ccccc1)(CNC(=O)c1ccccc1)[N+](=O)[O-] tested_system="HOP-92 NSCLC" result="> 100 µM"
molecule=CCCn1c(=O)c2nn3c(=O)n(CCC)c(=O)c3nn2c1=O tested_system="HOP-92 NSCLC" result="> 100 µM"
molecule=S=C(Nc1ccc2c(c1)oc1ccccc12)c1cccs1 tested_system="HOP-92 NSCLC" result="> 100 µM"
molecule=N#Cc1c2ccccc2c2nnc3ccc(C(F)(F)F)cc3n12 tested_system="HOP-92 NSCLC" result="> 100 µM"

Exercise: Lab note: need TGI with HOP-92 NSCLC for entry O=C([O-])CCc1ccccc1.O=C([O-])CCc1ccccc1.O=C([O-])CCc1ccccc1.O=C([O-])CCc1ccccc1.[Mo+2].[Mo+2] , please look it up.
Solution: > 100 µM

Exercise: I'm curious: which TGI was measured for CSC1=C(C#N)C(=O)N(c2ccc(C)cc2)C(=O)C1C#N (stereo not drawn) tested on HOP-92 NSCLC?
Solution: 82 µM

Exercise: So what TGI did CS(=N)(=O)CCC(N)P(=O)(O)O (stereo not drawn) get with HOP-92 NSCLC?
Solution: > 100 µM

====

Test system: MOLT-4 leukemia
Assay: NCI tumour cell line growth inhibition, 48 h; in the data active = GI50 below about 0.43 µM; inactive = the rest
The categories you may choose from are active, inactive

Worked cases, answers included:
molecule=CCOC(=O)Nc1ccc2c(c1)N(C(=O)CCN(CC)CC)c1ccccc1S2 label_value=inactive
molecule="COc1ccc(C2CC(c3ccc4ccccc4c3)=NN2c2nc(O)c(C3=c4cc(OC)ccc4=NC3=O)s2)cc1 (stereo not given)" label_value=active
molecule=O=C1NC(=O)C(c2ccccc2)=C1Nc1ccccc1 label_value=inactive
molecule="Oc1ccc(Cc2ccc(O)c(C3CC(c4ccc(Cl)cc4)=NN3)c2)cc1C1CC(c2ccc(Cl)cc2)=NN1 (stereo not given)" label_value=inactive
molecule=COc1cc(/C=C/C(=O)c2c(C)nc3ccccc3c2C)ccc1OCCCCOc1cc2c(cc1OC)C(=O)N1CCC[C@H]1C=N2 label_value=active
molecule=O=C(Cc1ccc(Nc2ccnc(C(F)(F)F)c2)cc1)N/N=C/c1ccccc1O label_value=inactive
molecule=N#C/C(=C\c1ccc(F)cc1)n1nc2cccc(F)c2n1 label_value=inactive
molecule="Cc1cc(C(O)(c2ccc(Nc3ccccc3)cc2)c2ccc(Nc3ccc(S(=O)(=O)O)cc3)cc2)ccc1N (stereo not given)" label_value=inactive

Exercise: Just curious, what result did C=C(CN1CCN(c2ccccc2C(F)(F)F)CC1)c1ccc(C(=O)Nc2ccccc2N)cc1 get here?
Solution: active

Exercise: Answer briefly: the call reported for NC(=O)CCc1ccccc1Oc1nccc(-c2c(-c3ccc(F)cc3)ncn2C2CCNCC2)n1 in this assay.
Solution: inactive

====

Tested on: TK-10 renal
Experiment: NCI tumour cell line growth inhibition, 48 h; in the data active = GI50 below about 0.43 µM; inactive = the rest
Classes to choose from: True = active, False = inactive

Solved entries:
compound=O=C(Cc1ccc(Nc2ccnc(C(F)(F)F)c2)cc1)N/N=C/c1ccccc1O tested_system="TK-10 renal" label_value=False
compound=CCCCN(CC)CCCCCCCCCCN1CCCc2cc(OC)ccc21 tested_system="TK-10 renal" label_value=False
compound=O=C1C(=C([O-])c2ccccc2)C(=O)c2ccccc21.O=C1C(=C([O-])c2ccccc2)C(=O)c2ccccc21.[Co+2] tested_system="TK-10 renal" label_value=False

Exercise: Lab log entry: O=C1NC(=O)C(c2ccccc2)=C1Nc1ccccc1 — outcome as called in the assay?
Solution: False

Exercise: What did this assay record as the result for O=C1c2cccnc2C(=O)c2c1c(C(=O)OCCc1ccccn1)c1ccccn21 ?
Solution: True

Exercise: Short answer needed: outcome of this test for O=C(Nc1ccc(I)cc1)c1cccc([N+](=O)[O-])c1O ?
Solution: False

Exercise: Dear colleague, could you share the recorded outcome for N#Cc1c2ccccc2c2nnc3ccccc3n12 when you have a moment?
Solution: False

Exercise: For Cc1cc(C(O)(c2ccc(Nc3ccccc3)cc2)c2ccc(Nc3ccc(S(=O)(=O)O)cc3)cc2)ccc1N (stereo not given) , which call appears in the assay record?
Solution: False

Exercise: State the result this test recorded for CCOC(=O)[C@@H](C)C[C@H](Cc1ccccc1)NC(=O)c1csc([C@@H](C[C@H](C(C)C)N(C)C(=O)[C@@H](NC(=O)[C@H]2C[C@H](O)CCN2C)C(C)C)OC(C)=O)n1 .
Solution: True

Exercise: Fill in: this test's call for CCCOc1ccc(/C=N/Nc2cc(C)nc3ccc(Cl)cc23)cc1 is ___
Solution: False

Exercise: For this compound, state the assay outcome: CCC(C)(C)[C@H](NC(=O)[C@H]1CCCCN1C)C(=O)N(C)[C@H](C[C@@H](OC(C)=O)c1nc(C(=O)N[C@@H](Cc2ccccc2)C[C@H](C)C(=O)O)cs1)C(C)C
Solution: True

Exercise: Lab log entry: Brc1ccc(Nc2nc3ccccc3nc2Nc2ccc(Br)cc2)cc1 — outcome as called in the assay?
Solution: False

Exercise: Hello, I am checking results. What call was entered for COc1cc(/C=C/C(=O)c2c(C)nc3ccccc3c2C)ccc1OCCCCOc1cc2c(cc1OC)C(=O)N1CCC[C@H]1C=N2 ?
Solution: True

Exercise: Just curious, what result did O=C(NS(=O)(=O)c1ccc(NC[C@H]2COCCO2)c([N+](=O)[O-])c1)c1ccc(N2CCN(CC3=C(c4ccc(Cl)cc4)CC4(CCC4)CC3)CC2)cc1Oc1cnc2[nH]ccc2c1 get here?
Solution: False

Exercise: Which outcome was entered for the compound COc1cc(/C=C/C(=O)c2ccc(F)cc2)ccc1OCCCCCOc1cc2c(cc1OC)C(=O)N1CCCC1C=N2 (stereo not given) in this test?
Solution: True

====

Tested on: ACHN renal
Assay: NCI tumour cell line growth inhibition, 48 h
Measured endpoint: TGI

Reference set, count: 10
compound="CC(C)COP(C)(=O)C(N)(C(F)(F)F)C(F)(F)F (stereo unspecified)" tested_system="ACHN renal" result="> 100 µM"
compound="NC(CO)c1ccc(OCc2ccccc2)cc1 (stereo unspecified)" tested_system="ACHN renal" result="> 100 µM"
compound=COc1ccc(-c2coc3cc(O)cc(O)c3c2=O)cc1 tested_system="ACHN renal" result="> 10 µM"
compound="COc1ccc(C2CC(c3ccc4ccccc4c3)=NN2c2nc(O)c(C3=c4cc(OC)ccc4=NC3=O)s2)cc1 (stereo unspecified)" tested_system="ACHN renal" result="0.419 µM"
compound="CO[C@H]1O[C@@H]2OC3(C)CCC4[C@H](C)CCC([C@H]1C)[C@]42OO3 (stereo partly specified)" tested_system="ACHN renal" result="> 100 µM"
compound=Cn1nc(-c2ccccc2)c2c(-c3ccccc3)c3cc(Cl)ccc3nc21 tested_system="ACHN renal" result="> 100 µM"
compound=FC(F)(F)c1ccc(-c2ncc(-c3ccc(C(F)(F)F)cc3)c(NCc3cc(C(F)(F)F)cc(C(F)(F)F)c3)n2)cc1 tested_system="ACHN renal" result="> 100 µM"
compound="NC1=NC2=C(CCCC2)C(c2cccs2)S1 (stereo unspecified)" tested_system="ACHN renal" result="> 100 µM"
compound=C#C[C@]1(O)[C@@H](CO)O[C@@H](n2ccc(N)nc2=O)[C@@H]1O tested_system="ACHN renal" result="0.612 µM"
compound=O=C1C=CC(=O)N1c1ccc(I)cc1 tested_system="ACHN renal" result="33.3 µM"

Consider the record given below.
Exercise: Find the recorded TGI belonging to O=P(CCOc1ccccc1OCCP(=O)(c1ccccc1)c1ccc2c(c1)OCCOCCOCCOCCO2)(c1ccccc1)c1ccc2c(c1)OCCOCCOCCOCCO2 (stereo unspecified) and report it.
Solution: > 100 µM
